Target: T1, RSV F ectodomain stabilized in the postfusion conformation (F ΔFP), subtype A (Respiratory syncytial virus subtype A, UniProt P03420 26-109; P03420 147-524)
T1 construct: extracellular domain; trimer; furin-cleaved; also called Postfusion subtype A
Experiment: BLI, IgG on AHQ sensor, 100 nM antigen
pKd: −log10 of the molar value.

# binder, pKd
rows = [
    ("ADI-14498 (antibody, V domains shown, full-length IgG (yeast-expressed); also called Antibody Number 59; Ab# 59) VH: EVQLVESGPTLVKPTQTLTLTCTFSGFSLTTRGMGVGWIRQPPGRSLEWLAVIYWDGDVRYSPSLKGRLTITKDTPKNQVVLTMTNMDPVDTATYYCVHSDLYDRNAYYLHYFDFWGQGTLVTVSS VL: DIRLTQSPSSLSASVGDRVTITCRASQIIASYLNWYQQKPGKAPNLLIFAASSLQSGVPSRFRGSGSGTDFTLTISSLQPEDFATYYCQQSYSIPYTFGQGTKLEIK", 9.39),
    ("ADI-14491 (antibody, V domains shown, full-length IgG (yeast-expressed); also called Antibody Number 52; Ab# 52) VH: EVQLVESGGGVVQPGRSLRLSCAASGFTFSDHAMYWVRQAPGKGLEWVALISFDGRNIYYADSVKGRFTISRDNSKNTLYLQMNSLRAEDTAVYYCARDQWLVPDYWGQGTLVTVSS VL: QSVLTQPASVSGSPGQSITISCTGTSSDVGGYNYVSWYQQHPGNAPKLMIYEVSKRPSGVPDRFSGFKSGNTASLTVSGLQAEDEADYYCSSYAGSNSVFGTGTKVTVL", 9.62),
    ("ADI-14524 (antibody, V domains shown, full-length IgG (yeast-expressed); also called Antibody Number 84; Ab# 84) VH: EVQLVESGGGLVQPGGSLRLSCAASGFSFSDYSMNWVRQAPGKGLEWVSYITPSSRNKFYADSVRGRFTISRDNAENSLYLQMNSLRVEDTAVYYCVRSLHWGAAIERWDVWGQGTTVTVSS VL: EIVLTQSPGTLSLSPGERATLSCRASQSISSSFFAWYQQTPGQAPRLLMYATSSRATGIPDRFSGSGSGTDFTLTISRVEPEDFAVYYCQQSGSSPYTFGQGTKVEIK", 9.08),
]
